Tested on: A549
measurementDescription: Inhibition of cell viability (MTS), A549 (negative control line)
Format: cell-based
testParameters: Homo sapiens, A549, 96 h, A549 cells (negative control), 96 hours incubation
pEC50: −log10 of the molar value.
parameterMeasured: pEC50

CS(=O)(=O)c1cccc(-c2ccc3nnc(C(F)(F)c4ccc5nc(NC(=O)C6CC6)cn5n4)n3c2)c1    < 4.30
O=C(Nc1cn2nc(C(F)(F)c3nnc4ccc(-c5cn[nH]c5)cn34)ccc2n1)C1CC1    < 4.30
O=C(Nc1cn2nc(C(F)(F)c3nnc4ccc(-c5cncnc5)cn34)ccc2n1)C1CC1    < 4.30
COc1ccc(-c2ccc3nnc(C(F)(F)c4ccc5nc(NC(=O)C6CC6)cn5n4)n3c2)cc1    4.60 to 5.10
N#Cc1cccc(-c2ccc3nnc(C(F)(F)c4ccc5nc(NC(=O)C6CC6)cn5n4)n3c2)c1    < 4.30
CC(C)Oc1cccc(-c2ccc3nnc(C(F)(F)c4ccc5nc(NC(=O)C6CC6)cn5n4)n3c2)c1    4.60 to 5.10

Turning now to a further record.
[Q] # input compound: CC(C)CNC(=O)c1ccc2nnc(Sc3ccc4nc(NC(=O)C5CC5)cn4n3)n2c1 ; wanted: its pEC50
[A] < 4.71

* * *

In what follows, each item is paired with its IC50 for cMET enzyme (amino acids 1023-1360) (Homo sapiens).

COc1cccc(-c2ccc3nnc(C(F)(F)c4ccc5nc(NC(=O)C6CC6)cn5n4)n3c2)c1    < 30 nM

[Q] # input molecule: Cn1cc(-c2ccc3nnn(Cc4ccc5nc(NC(=O)C6CC6)cn5n4)c3c2)cn1 [13 (free base)] ; wanted: its IC50
[A] 30 to 59 nM

[Q] # input molecule: CC(C)Oc1cccc(-c2ccc3nnc(C(F)(F)c4ccc5nc(NC(=O)C6CC6)cn5n4)n3c2)c1 ; wanted: its IC50
[A] 60 to 100 nM

[Q] # input molecule: CC(c1ccc2nc(NC(=O)C3CC3)cn2n1)c1nnc2ccc(-c3ccc(F)cc3)cn12 (stereo not shown) ; wanted: its IC50
[A] < 30 nM

[Q] # input molecule: CC(C)(O)c1ccc2nnc(Sc3ccc4nc(NC(=O)C5CC5)cn4n3)n2c1 ; wanted: its IC50
[A] > 100 nM

[Q] # input molecule: O=C(Nc1cn2nc(C(F)(F)c3nnc4ccc(-c5cccc(F)c5)cn34)ccc2n1)C1CC1 ; wanted: its IC50
[A] < 30 nM

[Q] # input molecule: CNC(=O)c1ccc(-c2ccc3nnc(C(C)c4ccc5nc(NC(=O)C6CC6)cn5n4)n3c2)cc1F (stereo not shown) ; wanted: its IC50
[A] < 30 nM

* * *

Tested on: MKN45
measurementDescription: Inhibition of cell viability (MTS), MKN45
Type: cell-based
testParameters: Homo sapiens, MKN-45, MKN45 cells, 96 hours incubation
pEC50: −log10 of the molar value.
pEC50 listing for selected molecules.

Previously resolved entries follow.
O=C(O)c1ccc2nnc(Sc3ccc4nc(NC(=O)C5CC5)cn4n3)n2c1    < 6.20
COCCOCn1cc(-c2ccc3nnc(Sc4ccc5nc(NC(=O)C6CC6)cn5n4)n3c2)cn1    > 7.00
O=C(NCCO)Nc1cn2nc(Sc3nnc4ccc(-c5cccc(F)c5)cn34)ccc2n1    > 7.00
N#Cc1cc(-c2ccc3nnc(Sc4ccc5nc(NC(=O)C6CC6)cn5n4)n3c2)ccc1OCCO    6.60 to 7.00
N#Cc1ccc2nnc(Sc3ccc4nc(NC(=O)C5CC5)cn4n3)n2c1    < 6.20

Turning now to a further record.
[Q] # input molecule: CC(C)(O)c1ccc2nnc(Sc3ccc4nc(NC(=O)C5CC5)cn4n3)n2c1 ; wanted: its pEC50
[A] < 6.20
